Conditions: 293.15 K; 101.33 kPa; Liquid
Structures can show the parent of a compound that is named as a salt.
QUANTITY_NAME: mass density (kg/m3)
Report the figure in kg/m3 without appending any unit label.

Memo: CCC/C=C/COC(C)=O [(E)-2-hexenyl acetate] , reported mass density: 897.84

Measured mass density of CCCCCCOC(C)=O [hexyl ethanoate] : 872.9

Record CCOC(=O)CC(C)C [ethyl 3-methylbutanoate] , field mass density: 866.23

Note to self: mass density recorded for CC/C=C\CCOC=O [(Z)-3-hexenyl formate] was 909.15

Field mass density (entry CCOC(=O)C(C)CC (stereo not given) [ethyl 2-methylbutanoate] ) reads 869.73

---

Hi there, I'd appreciate the recorded mass density for every entry that follows.
Details: 298.15 K; 101.33 kPa; Liquid
Counter-ions that a name gives are not always drawn.
Give just the numeric value; kg/m3 need not be written.

Entry CCCCOC(C)=O [butyl ethanoate] ; mass density = 876.45

Per the record, CCOC(=O)C(C)CC (stereo unspecified) [ethyl 2-methylbutanoate] has mass density of 865

For reference, reported mass density for CCOC(=O)CC(C)C [ethyl 3-methylbutanoate] stands at 864.01

Looking up CC/C=C\CCOC(C)=O [(Z)-3-hexenyl acetate] , I see its mass density listed as 897.14

# mass density (compound: CCCCOC(=O)CCC [butyl butanoate] ) is 869.14

Entry CC/C=C\CCOC=O [(Z)-3-hexenyl formate] , mass density reported as 908.13

---

Conditions: 303.15 K; 101.33 kPa; Liquid; Falling or rolling sphere viscometry
QUANTITY_NAME: viscosity (mPa·s)
Please respond with the number in mPa·s and leave the unit unwritten.

Record CCCCCC(=O)OCC [ethyl hexanoate] , field viscosity: 0.704

GET /value?item= CC/C=C\CCOC(C)=O [(Z)-3-hexenyl acetate] &field=viscosity returns 0.763

Field viscosity (entry CCC/C=C/COC(C)=O [(E)-2-hexenyl acetate] ) reads 0.77

Query CC(=O)OCCC(C)C [3-methylbutyl ethanoate] yields viscosity of 0.773

---

Conditions: 338.15 K; 101.33 kPa; Liquid; Falling or rolling sphere viscometry
Structures can show the parent of a compound that is named as a salt.
Class field: derived from viscosity; ranges low value = under 0.4 mPa·s, medium value = from 0.4 mPa·s up to 0.5 mPa·s, high value = 0.5 mPa·s and over

Ask | Which band does CCCCOC(=O)CCC [butyl butanoate] fall in?
Reply | high value

Ask | Into which bin does this compound go? CC/C=C\CCOC(=O)C(C)C [cis-3-hexenyl isobutyrate]
Reply | high value

Ask | Would you mind sorting CCOC(=O)CC [ethyl propanoate] into the appropriate category?
Reply | low value

Ask | Which class holds CCOC(=O)C(C)CC (stereo not drawn) [ethyl 2-methylbutanoate] ?
Reply | medium value

Ask | Class label required: CCCC(=O)OCCC(C)C [3-methylbutyl butanoate]
Reply | high value

Ask | Quick check: band for CCOC(=O)CC(C)C [ethyl 3-methylbutanoate]
Reply | medium value

Ask | # bin lookup: classify CCOC(C)=O [ethyl acetate] by its viscosity
Reply | low value

Ask | # bin label for CCCCCCOC(C)=O [hexyl ethanoate]
Reply | high value

Ask | Would you mind sorting CC/C=C\CCOC=O [(Z)-3-hexenyl formate] into the appropriate category?
Reply | low value

Ask | // return the class label for CCCCCC(=O)OCC [ethyl hexanoate]
Reply | medium value
